COND: 328.15 K; 101 kPa; Liquid; Vibrating tube method
Numbers after ± are expanded uncertainties.
Property: mass density; scope: individual compounds
ATTRIBUTE_MEASURED: mass density

INSERT INTO results (compound, measured_result) VALUES
  ('Cc1cccc(C)c1 [1,3-dimethylbenzene]', '833.85 ± 0.14 kg/m3'),
  ('CCc1ccccc1 [ethylbenzene]', '835.93 ± 0.13 kg/m3'),
  ('Cc1ccc(C)cc1 [1,4-dimethylbenzene]', '830.39 ± 0.14 kg/m3'),
  ('C=C[Si]1(C)O[Si](C)(C=C)O[Si](C)(C=C)O[Si](C)(C=C)O1 (stereo not given) [2,4,6,8-tetramethyl-2,4,6,8-tetravinylcycloterasiloxane]', '951.94 ± 0.13 kg/m3'),
  ('Cc1ccccc1C [1,2-dimethylbenzene]', '850.24 ± 0.13 kg/m3');

----------
RUN_DESCRIPTION: refractive index (Na D-line) (dimensionless)
COND: 298.15 K; 101.33 kPa; Liquid; Standard Abbe refractometry
Numbers after ± are expanded uncertainties.
ATTRIBUTE_MEASURED: refractive index

INSERT INTO assay_data (compound, measured_result) VALUES
  ('Cc1ccc(C)cc1', '1.49298 ± 0.00031'),
  ('C=C[Si]1(C)O[Si](C)(C=C)O[Si](C)(C=C)O[Si](C)(C=C)O1 (stereo not given)', '1.43202 ± 0.00033'),
  ('CCc1ccccc1', '1.49297 ± 0.00031'),
  ('Cc1ccccc1C', '1.50257 ± 0.00031'),
  ('Cc1cccc(C)c1', '1.49444 ± 0.00031');

----------
RUN_DESCRIPTION: refractive index (Na D-line) (dimensionless); φn = volume fraction of the nth substance listed
COND: 298.15 K; 101 kPa; Liquid; Standard Abbe refractometry; φ2 = 0
Quick list: refractive index per entry.
ATTRIBUTE_MEASURED: refractive index

INSERT INTO assay_data (compound, measured_result) VALUES
  ('Cc1ccc(C)cc1 [1,4-dimethylbenzene] + C=C[Si]1(C)O[Si](C)(C=C)O[Si](C)(C=C)O[Si](C)(C=C)O1', 1.49298),
  ('Cc1ccccc1C [1,2-dimethylbenzene] + C=C[Si]1(C)O[Si](C)(C=C)O[Si](C)(C=C)O[Si](C)(C=C)O1', 1.50257),
  ('CCc1ccccc1 [ethylbenzene] + C=C[Si]1(C)O[Si](C)(C=C)O[Si](C)(C=C)O[Si](C)(C=C)O1', 1.49297),
  ('Cc1cccc(C)c1 [1,3-dimethylbenzene] + C=C[Si]1(C)O[Si](C)(C=C)O[Si](C)(C=C)O[Si](C)(C=C)O1', 1.49444);

----------
RUN_DESCRIPTION: refractive index (Na D-line) (dimensionless); φn = volume fraction of the nth substance listed
COND: 328.15 K; 101 kPa; Liquid; Standard Abbe refractometry; φ2 = 0
± gives the expanded uncertainty stated by the source.
ATTRIBUTE_MEASURED: refractive index

INSERT INTO results (molecule, measured_result) VALUES
  ('Cc1cccc(C)c1 [1,3-dimethylbenzene] + C=C[Si]1(C)O[Si](C)(C=C)O[Si](C)(C=C)O[Si](C)(C=C)O1', '1.4782 ± 0.0003'),
  ('Cc1ccc(C)cc1 [1,4-dimethylbenzene] + C=C[Si]1(C)O[Si](C)(C=C)O[Si](C)(C=C)O[Si](C)(C=C)O1', '1.47654 ± 0.00031'),
  ('Cc1ccccc1C [1,2-dimethylbenzene] + C=C[Si]1(C)O[Si](C)(C=C)O[Si](C)(C=C)O[Si](C)(C=C)O1', '1.48661 ± 0.00031'),
  ('CCc1ccccc1 [ethylbenzene] + C=C[Si]1(C)O[Si](C)(C=C)O[Si](C)(C=C)O[Si](C)(C=C)O1', '1.47649 ± 0.00031');
